- Test system: HCT-116
- Test Summary: NCI tumour cell line growth inhibition, 48 h
Activity calls are given as the source filed them. Cut-off read from the data, not from the text of the source: active = GI50 up to about 1.1 µM and inactive = higher.
Quantity Kind: GI50

Consider the reported GI50 for these molecules:
{"Record Smiles": "Clc1ccc(Cl)c(SCCCN2CCNCC2)c1", "Recorded Measurement": "18.3 µM (inactive)"}
{"Record Smiles": "CCCSc1cc(Cl)c(C)cc1S(=O)(=O)n1ccnc1OCCCN(C)C", "Recorded Measurement": "> 100 µM (inactive)"}

// switching to the query molecule
Tell me reported GI50 for N=c1oc2cc(O)ccc2cc1C(=O)Nc1cccc2ccccc12 , tested with HCT-116.
3.39 µM (inactive)

###

Recorded GI50 by entry
- Tested on: LOX IMVI
- Test Summary: NCI tumour cell line growth inhibition, 48 h
The source made the active and inactive calls. Cut-off read from the data, not from the text of the source: active = GI50 up to about 1.1 µM and inactive = higher.

Guide cases for GI50, answers given:
{"Molecule": "COc1cc(OCCN(C)C)c2[nH]c(C(=O)N3CC(CCl)c4ccc(N)cc43)cc2c1 (configuration not stated)", "GI50": "0.021 µM (active)"}
{"Molecule": "N#CC(C#N)SCc1ccccc1", "GI50": "5.11 µM (inactive)"}
{"Molecule": "C/C(=N\\Nc1nc2ccccc2[nH]1)c1ccc2ccccc2n1", "GI50": "2.11 µM (inactive)"}
{"Molecule": "Cc1ccc(-c2c(C#N)c(-c3ccc(Cl)cc3)c(C#N)c(=O)n2NS(=O)(=O)c2ccccc2)cc1", "GI50": "42.3 µM (inactive)"}

Consider now this further molecule.
Entry O=C1c2ccccc2C2(c3ccc(Cl)cc3)NCc3ccccc3CN12 (configuration not stated) , system LOX IMVI: what GI50 was measured?
16.2 µM (inactive)

###

- Test system: K562
- Test Summary: NCI tumour cell line growth inhibition, 48 h
Active and inactive are the calls of the source. Rule as the data show it: active = GI50 up to about 1.1 µM and inactive = higher.
Quantity Kind: GI50

// worked examples, GI50 included
{"Compound": "Cc1ccc(S(=O)(=O)NC(CO)C(=O)O)cc1 (stereo not drawn)", "Recorded Measurement": "> 100 µM (inactive)"}
{"Compound": "CC1=C(O)C(=O)c2cn(C)cc2C1=O", "Recorded Measurement": "> 100 µM (inactive)"}

Here is another compound to look at.
Field: GI50 (K562). Entry: CN(C)CCCNC(=O)c1c(O)c2ccccc2n(C)c1=O
79.3 µM (inactive)

###

- System: IGROV-1
- Test Summary: NCI tumour cell line growth inhibition, 48 h
Activity calls are given as the source filed them. Rule as the data show it: active = GI50 up to about 1.1 µM and inactive = higher.
# GI50 values compiled below

Provide value of GI50 for this record tested with IGROV-1: COc1ccc2[nH]c3c(c2c1)[C@H]1CCC(C(C)(C)C)C[C@H]1[C@H]1C(=O)N(c2ccccc2)C(=O)[C@@H]31 (some centres not stated)
> 58.7 µM (inactive)

What is its GI50 for IGROV-1? Entry: FC(F)(F)C1(Br)C(c2ccccc2)=C1c1ccccc1
24.7 µM (inactive)

# get_value(readout= GI50, system= IGROV-1) for COc1ccc2c(c1)C(=O)OCCC2
> 100 µM (inactive)

# query: GI50 | item CN(C)Cc1cc(C(C)(C)C)cc(C2CCCCC2)c1O | system: IGROV-1
18.8 µM (inactive)

###

- System: M14
- Test Summary: NCI tumour cell line growth inhibition, 48 h
Activity calls are given as the source filed them. Cut-off read from the data, not from the text of the source: active = GI50 up to about 1.1 µM and inactive = higher.
Give your call using only these classes: active, inactive

Example entries and their recorded answers appear below.
{"Molecule": "CC(C)CCC[C@@H](C)C1CCC2[C@@H]3CC=C4C[C@@H](C(=O)NCC[N+](C)(C)CCCS(=O)(=O)[O-])CC[C@]4(C)C3CC[C@@]21C (stereo partly specified)", "Group": "inactive"}
{"Molecule": "Cc1ccc(-n2c(O)c(C#N)c3[nH]nc(N)c3c2=O)cc1", "Group": "inactive"}
{"Molecule": "C[C@H]1[C@H](N2CCCC2)O[Si](C(C)(C)C)(C(C)(C)C)[C@@H]1C", "Group": "inactive"}
{"Molecule": "CC(C)C1C(=O)N(c2c(F)c(F)c(F)c(F)c2F)C(=S)N1CC[S+]([O-])c1ccccc1 (stereo unspecified)", "Group": "inactive"}
{"Molecule": "C=CN(C=C)C(=O)Cn1cc(-c2ccccc2)nn1", "Group": "inactive"}
{"Molecule": "CC1=CC2CC(C)C1(C)CCc1ccoc12 (stereo unspecified)", "Group": "inactive"}
{"Molecule": "CC[C@@]1(O)C(=O)OCc2c1cc1n(c2=O)Cc2c-1nc1ccccc1c2/C=N\\NC(=O)C(N)CC(C)C (stereo partly specified)", "Group": "active"}
{"Molecule": "COC(=O)c1ccccc1CC1Cc2cc3c(cc2C1)CCC3", "Group": "inactive"}
{"Molecule": "CN1c2ccccc2N(C)C23N(C)c4ccccc4N(C)C12N(C)c1ccccc1N3C (stereo unspecified)", "Group": "inactive"}
{"Molecule": "O=C1C(=C/C=C2/SC(c3ccccc3)(c3ccccc3)c3ccccc32)C(=O)c2ccccc21", "Group": "inactive"}

Next item in the queue.
Status in this test for [O-]/N=[N+](/[O-])C1CCCCC1=[N+]1CCOCC1 (stereo unspecified) ?
inactive

###

- Tested on: HL-60
- Test Summary: NCI tumour cell line growth inhibition, 48 h
Calls of active or inactive are those of the source. Rule as the data show it: active = GI50 up to about 1.1 µM and inactive = higher.
Can you answer with just one of these options? true (1) for active, false (0) for inactive

For orientation, consider the following solved cases.
{"Compound": "O=C(c1cc2ccccc2[nH]1)C(O)(c1cc2ccccc2[nH]1)c1cc2ccccc2[nH]1", "Group": "false (0)"}
{"Compound": "CCN(CC)C(=O)CCn1ccc(=O)[nH]c1=O", "Group": "false (0)"}
{"Compound": "O=C1NC(Nc2ccccc2Cl)=N/C1=C\\c1c(Cl)cccc1Cl", "Group": "false (0)"}

// param item: N/N=C1N=C(Cl)/C(=C/c2ccco2)N\1 ; yields the recorded call
false (0)

Entry CCOC(=O)c1c2ccccc2n2c(=O)n(-c3ccc(OC)cc3)nnc12 : call = ?
false (0)

Identify the outcome logged in this assay for the compound shown: CN(C)C(=O)N(CCCl)N=O
false (0)

Tell me the assay call for O=C1CCCCN1C(=O)c1ccc([N+](=O)[O-])cc1 please.
false (0)

Entry Nc1nc(Cl)cc(NC2(CO)CCC2)n1 : call = ?
false (0)

Write down the call the test reported for this compound. Item: c1ccc(CN2CCC3(CC2)SSC2(CCN(Cc4ccccc4)CC2)S3)cc1
false (0)

Query: recorded result category for CC1(C)N=C(/C=N/O)C(C)(C)N1O in this test
false (0)

For this compound, state the assay outcome: CC(CC(=O)CO[C@H]1[C@H](O)[C@@H](O)[C@@H](O)[C@@H]2NC(=O)c3c(cc4c(c3O)OCO4)[C@H]21)OC1OC(CO)C(O)C(O)C1O (some centres not stated)
true (1)

Query: recorded result category for COc1ccc(CCc2nccn2C)cc1OC in this test
false (0)

Could you please tell me the result logged for Cc1ccc(S(=O)(=O)N2CCSCCSCCN(S(=O)(=O)c3ccc(C)cc3)CCN(S(=O)(=O)c3ccc(C)cc3)CC2)cc1 in this assay?
false (0)

Please indicate how the test categorized CN(C)CCCNC(=O)c1c(O)c2ccccc2n(C)c1=O .
false (0)

# lookup: test call for C[C@H]1[C@H](N2CCCC2)O[Si](C(C)(C)C)(C(C)(C)C)[C@@H]1C
false (0)

Please let me know the test result on file for COc1ccc(-c2cc(-c3cc(Cl)cc(Br)c3O)nc(O)n2)cc1 .
false (0)

Returns: the outcome recorded for Cc1ccc(S(=O)(=O)Oc2cc(-c3ccccc3)nc3ccccc23)cc1 in this assay.
true (1)

Please let me know the test result on file for O=C(O)c1nc2ccc(Cl)cc2[nH]c1=O .
false (0)

Status in this test for NCCCCNCCCNC(=O)c1nc(-c2csc(CCN)n2)sc1Cl ?
false (0)

Recorded test outcome, item O=C(OCc1ccccc1)C1(N2CN(C3(C(=O)OCc4ccccc4)CCCC3)CN(C3(C(=O)OCc4ccccc4)CCCC3)C2)CCCC1
false (0)

What did this assay record as the result for N#CCC12CC=CCC1=C(O)C(=O)c1ccc(O)cc12 (configuration not stated) ?
false (0)

Record request — test call for Cc1c2c(cc3c(=O)ccn(CCN(C)C)c13)c(=O)ccn2CCN(C)C
false (0)

Fill in: this test's call for COC(=O)C1=C(C[S+]([O-])c2ccccc2[N+](=O)[O-])ON(C)C1c1ccccc1 (configuration not stated) is ___
false (0)

What did this assay record as the result for CSc1ccc(/C=C2\N=C(c3ccccc3)N(NC(=O)c3c(Cl)c(Cl)c(Cl)c(Cl)c3-c3nc4ccccc4[nH]3)C2=O)cc1 ?
false (0)

Hello, I am checking results. What call was entered for CNc1ccc(/C=C2\C=Cc3ccccc32)cc1 ?
false (0)

Hi team, can someone confirm the assay call for CC(=O)OC[C@@]12Cc3ccc(C)c(O)c3[C@]1(C)[C@@H](OC(C)=O)[C@]1(O)[C@H]([C@@H](OC(=O)c3ccccc3)[C@@H](C)[C@H]1OC(C)=O)[C@H]2OC(C)=O ?
false (0)

Answer briefly: the call reported for Nc1ncc2c(n1)-c1ccccc1OC2N1CCCCC1 (configuration not stated) in this assay.
false (0)
